EXPERIMENTAL SYSTEM: T1, human IL-12Rβ2-huFc-his (R&D system), biotinylated (human, UniProt Q99665 24-622, limits assumed, biotinylated)
T1 construct: bought; captured on Neutravidin in the ELISA; also called Bio-huIL-12Rβ2-huFc-His
T1 sequence (looked up): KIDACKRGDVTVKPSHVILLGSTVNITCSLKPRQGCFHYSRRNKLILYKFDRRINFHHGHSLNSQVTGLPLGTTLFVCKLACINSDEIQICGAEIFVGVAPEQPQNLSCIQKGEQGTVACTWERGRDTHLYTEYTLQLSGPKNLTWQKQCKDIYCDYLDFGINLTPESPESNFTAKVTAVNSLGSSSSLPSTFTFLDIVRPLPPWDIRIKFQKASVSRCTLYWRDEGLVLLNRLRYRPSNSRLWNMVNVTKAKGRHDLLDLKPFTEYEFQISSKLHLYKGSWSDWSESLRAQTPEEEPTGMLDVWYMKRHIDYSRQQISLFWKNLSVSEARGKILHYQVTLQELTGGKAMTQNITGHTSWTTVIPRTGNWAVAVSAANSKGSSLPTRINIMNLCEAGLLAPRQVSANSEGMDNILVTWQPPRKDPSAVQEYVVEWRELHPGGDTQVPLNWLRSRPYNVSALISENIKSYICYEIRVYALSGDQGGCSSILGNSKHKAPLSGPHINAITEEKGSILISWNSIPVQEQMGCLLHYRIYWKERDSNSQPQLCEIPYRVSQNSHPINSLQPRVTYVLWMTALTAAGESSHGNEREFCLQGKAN
ASSAY INFO: ELISA, periplasmic extract
Listed next: entries and their corresponding OD450 nm.
OBSERVED PROPERTY: OD450 nm

BINDER: VHH361B2 (VHH) VHH: QVQLVESGGGLVQTGASLRLSCAASGRTFGRYEMAWFRQAPGKEREFVAHISSSGLTTTYADSVKGRFTISRGNALNTVYLQMNSLKPEDTAVYYCAANVDGSAWSTLGAGMDYWGKGTLVTISS
ENDPOINT VALUE: 1.35

BINDER: VHH289B2 (VHH) VHH: QVQLVESGGGLVQAGGSLKLSCAASGGTFSSYAMGWFRQAPGKEREFVAAIMRSGGTTVYVNSVKGRFTVSRDNAKNTVYLQMNSLKPEDAAVYYCAAGRPVSRTSYYTYTYPHDYDYWGQGTQVSVSS
ENDPOINT VALUE: 3.19

BINDER: VHH94B2 (VHH) VHH: EVQLVESGGGLVQPGGSLRLSCAASGFTFSSYAMSWVRQAPGKGLEWVSAINSGGDSTSYADSVEGRFTISRDNAKNTLYLQMNSLKPDDTAVYYCAKWSDCSEYGCYDQTTTEGTQVTVSS
ENDPOINT VALUE: 0.19

BINDER: VHH194B2 (VHH) VHH: QLQLVESGGGLVQAGGSLRLSCAASGLTFSGYTVGWFRQAPGKEREFVAAINWSSAYTYSEFVKGRFTISRDNAKNTVYLQMSSLKPEDTAVYYCAARRSRTSWYASTAEAYDYWGQGTQVTVSS
ENDPOINT VALUE: 0.602

These measurements were taken from patent US20250019450A1.
